System: MC65 cells
Assay: Toxicity to MC65 cells in the presence of tetracycline
Assay type: cell-based
Settings: median toxic concentration to MC65 cells, presence of TC
attributeMeasured: TD50 (µM)
Just the number in µM, nothing appended.

// solved cases for TD50 follow
compound="Cc1cc2c(c(=O)o1)C=C1CC[C@H](C(C)CNCc3ccc(O)c4ccccc34)C[C@@H]1O2 (some centres unmarked)" uom=µM numericresult=13.7
compound="Cc1cc2c(c(=O)o1)C=C1CC[C@H](C(C)Cn3cnc(N)c4ncnc3-4)C[C@@H]1O2 (some centres unmarked)" uom=µM numericresult=39.0

What value of TD50 has been recorded for this entry: Cc1cc2c(c(=O)o1)C=C1CC[C@H](C(C)CNCc3ccc(O)cc3)C[C@@H]1O2 (mixture of isomers) 49.3
